readoutLabel: melting point

Some compounds with known melting point results, for comparison:
>  <cpdSmiles>
O=C(Nc1ccccc1Oc1ccc(Cl)cc1)C1CCN(C(=O)c2ccccc2)CC1

>  <readoutLabel>
melting point

>  <assayResult>
158 to 160 °C

$$$$
>  <cpdSmiles>
CC(=O)N1CCC(Nc2ccccc2Oc2ccc(Cl)cc2Cl)CC1

>  <readoutLabel>
melting point

>  <assayResult>
145 to 146 °C

$$$$

Next compound, melting point to be filled in.
In: Consider the compound shown here: `O=C(Nc1ccccc1Oc1ccc(Cl)cc1Cl)C1CCN(C(=O)c2ccccc2)CC1` What is its recorded melting point?
Out: 176 to 177 °C
